System: 966289-007-R4-J1-PDC complex spheroid viability;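 further: spheroids exposed to agents for one week before readout; percent viability relative to DMSO vehicle control wells as 100%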
Assay comment: Anticancer human tumor 966289-007-R4-J1-PDC patient-derived pancreatic adenocarcinoma cell line growth inhibition [RAS]
Test context: second compound 0.3 µM; first compound 0.0949 µM; stronger effect = lower value
Measured quantity: viability, T/C (%)
Numbers only, in %.

Example entries and their recorded answers appear below.
Compound: CCc1c2c(nc3ccc(O)cc13)-c1cc3c(c(=O)n1C2)COC(=O)[C@]3(O)CC + CCn1c(-c2cc(N3CCN(C)CC3)cnc2C(C)OC)c2c3cc(ccc31)-c1csc(n1)CC(NC(=O)C1CC1C)C(=O)N1CCCC(N1)C(=O)OCC(C)(C)C2
Target: 966289-007-R4-J1-PDC complex spheroid viability;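 further: spheroids exposed to agents for one week before readout; percent viability relative to DMSO vehicle control wells as 100%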
Unit descriptor: %
Measured result: 0.62
--
Compound: CC1(C)CCC(Nc2ncc(C(F)(F)F)c(-c3c[nH]c4c(P(C)(C)=O)c(C#N)ccc34)n2)CN1 (centres undefined) + CCn1c(-c2cccnc2C(C)OC)c2c3cc(ccc31)N1CCOC(CC(NC(=O)C(C(C)C)N(C)C(=O)C3(F)CCN(C(=O)C#CC(C)(C)N(C)C)CC3)C(=O)N3CCCC(N3)C(=O)OCC(C)(C)C2)C1
Target: 966289-007-R4-J1-PDC complex spheroid viability;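 further: spheroids exposed to agents for one week before readout; percent viability relative to DMSO vehicle control wells as 100%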
Unit descriptor: %
Measured result: 2.13
--
Compound: CC1(C)CCC(Nc2ncc(C(F)(F)F)c(-c3c[nH]c4c(P(C)(C)=O)c(C#N)ccc34)n2)CN1 (centres undefined) + CCn1c(-c2cc(N3CCN(C)CC3)cnc2C(C)OC)c2c3cc(ccc31)-c1csc(n1)CC(NC(=O)C1CC1C)C(=O)N1CCCC(N1)C(=O)OCC(C)(C)C2
Target: 966289-007-R4-J1-PDC complex spheroid viability;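 further: spheroids exposed to agents for one week before readout; percent viability relative to DMSO vehicle control wells as 100%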
Unit descriptor: %
Measured result: 12.7

Now consider the entry below.
### Prompt Would you mind telling me what viability, T/C value was observed for CCc1c2c(nc3ccc(O)cc13)-c1cc3c(c(=O)n1C2)COC(=O)[C@]3(O)CC + CCn1c(-c2cccnc2C(C)OC)c2c3cc(ccc31)N1CCOC(CC(NC(=O)C(C(C)C)N(C)C(=O)C3(F)CCN(C(=O)C#CC(C)(C)N(C)C)CC3)C(=O)N3CCCC(N3)C(=O)OCC(C)(C)C2)C1 ?
### Response 0.68
